The values you see were collected from the supplement of paper PMC10065799.

Measurement Target: Jak2 (UniProt O60674)
Sequence (O60674 whole entry, looked up): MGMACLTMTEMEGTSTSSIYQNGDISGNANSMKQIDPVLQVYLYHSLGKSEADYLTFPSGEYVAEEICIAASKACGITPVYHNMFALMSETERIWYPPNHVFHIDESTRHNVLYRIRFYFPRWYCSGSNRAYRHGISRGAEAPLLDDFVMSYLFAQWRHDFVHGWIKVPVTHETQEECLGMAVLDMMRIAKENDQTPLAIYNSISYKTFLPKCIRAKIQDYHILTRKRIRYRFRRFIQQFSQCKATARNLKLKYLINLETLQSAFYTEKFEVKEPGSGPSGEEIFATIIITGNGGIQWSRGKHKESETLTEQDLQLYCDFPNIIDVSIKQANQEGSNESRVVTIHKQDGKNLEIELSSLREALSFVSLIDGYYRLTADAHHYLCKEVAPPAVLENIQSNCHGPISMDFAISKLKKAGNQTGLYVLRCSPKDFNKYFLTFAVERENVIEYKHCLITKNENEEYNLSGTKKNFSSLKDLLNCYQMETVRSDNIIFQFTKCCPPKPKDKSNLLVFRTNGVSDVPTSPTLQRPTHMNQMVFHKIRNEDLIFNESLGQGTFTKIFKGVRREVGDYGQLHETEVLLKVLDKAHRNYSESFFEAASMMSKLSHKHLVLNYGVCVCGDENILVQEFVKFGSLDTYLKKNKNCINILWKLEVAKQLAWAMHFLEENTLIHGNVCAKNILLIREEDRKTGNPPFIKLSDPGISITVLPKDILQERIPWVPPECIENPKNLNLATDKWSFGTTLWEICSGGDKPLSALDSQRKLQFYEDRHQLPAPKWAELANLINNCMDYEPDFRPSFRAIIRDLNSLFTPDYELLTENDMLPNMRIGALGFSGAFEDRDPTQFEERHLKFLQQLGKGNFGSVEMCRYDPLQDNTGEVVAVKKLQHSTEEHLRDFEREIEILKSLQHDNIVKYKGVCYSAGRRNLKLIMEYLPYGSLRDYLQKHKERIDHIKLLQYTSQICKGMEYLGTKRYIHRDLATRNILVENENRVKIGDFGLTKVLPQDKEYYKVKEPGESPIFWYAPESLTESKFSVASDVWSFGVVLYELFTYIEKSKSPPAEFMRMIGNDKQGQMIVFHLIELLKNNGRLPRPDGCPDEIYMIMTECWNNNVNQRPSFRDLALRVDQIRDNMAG
Assay Details: phosphorylation enrichment, bacterial display (enrichment ratio); higher = better substrate or ligand; peptides without Tyr show the background;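 further: 11-residue human phosphosite peptides and single-mutation variants displayed on the E. coli surface, counted by deep sequencing, each peptide's frequency after selection divided by its frequency in the unselected input library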;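 further: frequency after pTyr selection over input frequency; kinase dosed for 20-30% of maximal phosphorylation in three min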
# reported phosphorylation enrichment; entries follow
I'd appreciate a reply containing only the number, no unit.

These recorded examples may help you get a feel for the data.
Sequence Text | Measured Value
QDDTVYMGKVT [DCTN1_Y1244] | 1.31
ECKLLYSQKEG [PTPN11_Y263_R265Q] | 0.986
VKPENYRRPDI [VHL_Y175_L178P] | 0.525

Output measured phosphorylation enrichment for this item: SQKRKYIEIDS [SDAD1_Y580]
0.701

Specify phosphorylation enrichment for EVVGGYSVHNA [MLH1_Y183_R182G] and stop.
0.504

Hello, please tell me recorded phosphorylation enrichment for this one: DLFRLYICVKE [ARID1B_Y1091_V1092I]
1.45

Let me know recorded phosphorylation enrichment for VKKKLDEEIDQ [CYP17A1_Y329_Y329D] , thanks.
0.782
